This listing pairs compounds with measured EC90.
# System: HCV replicon cells
# Measurement protocol: Cell-based HCV replicon assay (replicon RNA level by real time PCR, Taqman)
# Condition description: Hepatitis C virus, 72 h, HCV replicon cells, replicon RNA level by real time PCR, harvested day 3; read-out: EC90 (μM) range

Worked examples, 5 compounds total:
CCOCCNc1nc(C)c(-c2nc3cnccc3s2)c(N[C@@H]2CC[C@@H](O)[C@@]2(C)O)n1    < 0.5 µM
Cc1nc(NCC(F)(F)F)nc(N[C@@H]2C[C@H](Cn3ccnn3)[C@@H](O)[C@H]2O)c1-c1nc2ccccc2s1    < 0.5 µM
Cc1nc(NCc2c(F)cccc2F)nc(N[C@@H]2CC[C@@H](O)[C@@]2(C)O)c1-c1nc2c(C)nccc2s1    < 0.5 µM
Cc1nc(NCC(F)(F)F)nc(N[C@@H]2C[C@H](C(O)C(C)C)[C@@H](O)[C@H]2O)c1-c1nc2ccccc2s1 (stereo partly shown)    0.5 to 5 µM
CCCc1nccc2sc(-c3c(C)nc(N[C@H](C)C4CC4)nc3N[C@@H]3C[C@H](CNC(=O)OC)[C@@H](O)[C@H]3O)nc12    < 0.5 µM

Quick note, EC90 for Cc1ccc([C@@H](C)Nc2nc(C)c(-c3nc4cnccc4s3)c(N[C@@H]3C[C@H](CS(C)(=O)=O)[C@@H](O)[C@H]3O)n2)cc1 landed at < 0.5 µM

// sample CCC1(O)[C@H](O)[C@@H](CO)C[C@H]1Nc1nc(NCC2CC2)nc(C)c1-c1nc2cnccc2s1 (stereo partly shown) , its EC90 was < 0.5 µM

# EC90 of Cc1nc(N)nc(N[C@@H]2C[C@H](CO)[C@@H](O)[C@H]2O)c1-c1nc2c(C)nccc2s1 = > 5 µM

Lab book: EC90 of Cc1nc(NCC(F)(F)F)nc(N[C@@H]2C[C@H](CS(C)(=O)=O)[C@@H](O)[C@H]2O)c1-c1nc2cnccc2s1 noted as < 0.5 µM

The measured EC90 associated with Cc1nc(NC2CC2)nc(N[C@@H]2C[C@H](CO)[C@@H](O)[C@H]2O)c1-c1nc2c(C3CC3)nccc2s1 reads < 0.5 µM

Field EC90 (entry COC(=O)NC[C@H]1C[C@@H](Nc2nc(NCC(F)(F)F)nc(C)c2-c2nc3ccccc3s2)[C@H](O)[C@@H]1O ) reads 0.5 to 5 µM

Note to self: EC90 recorded for Cc1nc(NC2CC2)nc(N[C@@H]2C[C@H](C(C)O)[C@@H](O)[C@H]2O)c1-c1nc2c(C)nccc2s1 (stereo partly shown) was < 0.5 µM

Lab note: measured EC90 of Cc1ccccc1[C@H](Nc1nc(C)c(-c2nc3c(C)nccc3s2)c(N[C@@H]2C[C@H](CO)[C@@H](O)[C@H]2O)n1)C(F)(F)F was < 0.5 µM

====

# Tested on: HCV replicon cells
# Measurement protocol: Cell-based HCV replicon assay (replicon RNA level by real time PCR, Taqman)
# Condition description: Hepatitis C virus, 72 h, HCV replicon cells, harvested day 3, replicon RNA by real time PCR; reported as range class; read-out: EC90 (μM) range
# EC90 values compiled below

Known results for molecules:
Nc1nc(Cl)c(-c2cc3cc(C(F)(F)F)ccc3o2)c(N[C@@H]2C[C@H](CO)[C@@H](O)[C@H]2O)n1    > 5 µM
CC1(C)O[C@@H]2[C@@H](CO)C[C@@H](Nc3nc(N)nc(-c4nc5c(F)cc(F)cc5s4)c3-c3nc4c(F)cc(F)cc4s3)[C@@H]2O1    > 5 µM
N#Cc1ccc2oc(-c3c(Cl)nc(N)nc3N[C@@H]3C[C@H](CO)[C@@H](O)[C@H]3O)cc2c1    > 5 µM

Record for Cc1cc2cc(-c3c(Cl)nc(N)nc3N[C@@H]3C[C@H](CO)[C@@H](O)[C@H]3O)oc2cn1 under target or system HCV replicon cells: EC90 reported as < 0.5 µM
